biological target: Solute carrier family 15 member 1 (Homo sapiens, UniProt P46059); experiment: TP_TRANSPORTER: inhibition of Gly-Sar uptake (Gly-Sar: 25000 uM) in PEPT1-expressing CHO cells
Sequence (P46059 whole entry): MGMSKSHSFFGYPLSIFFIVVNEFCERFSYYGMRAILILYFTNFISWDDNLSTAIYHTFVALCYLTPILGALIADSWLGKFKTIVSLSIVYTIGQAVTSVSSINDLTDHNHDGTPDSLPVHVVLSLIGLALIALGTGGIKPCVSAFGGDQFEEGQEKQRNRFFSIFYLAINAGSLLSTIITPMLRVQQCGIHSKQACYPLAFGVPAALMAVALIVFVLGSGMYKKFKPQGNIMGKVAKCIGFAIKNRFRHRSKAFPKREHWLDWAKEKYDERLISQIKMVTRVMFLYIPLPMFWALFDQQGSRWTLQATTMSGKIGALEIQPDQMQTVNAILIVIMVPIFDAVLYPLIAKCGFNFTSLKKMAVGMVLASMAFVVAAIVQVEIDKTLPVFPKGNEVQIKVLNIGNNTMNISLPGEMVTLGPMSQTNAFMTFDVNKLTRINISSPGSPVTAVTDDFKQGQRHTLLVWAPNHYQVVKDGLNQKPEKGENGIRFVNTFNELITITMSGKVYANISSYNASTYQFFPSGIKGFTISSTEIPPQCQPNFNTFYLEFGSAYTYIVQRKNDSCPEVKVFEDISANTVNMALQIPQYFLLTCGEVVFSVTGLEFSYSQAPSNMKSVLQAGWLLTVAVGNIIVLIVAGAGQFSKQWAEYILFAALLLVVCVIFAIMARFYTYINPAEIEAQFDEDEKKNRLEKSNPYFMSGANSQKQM
Where a SMILES comes first, the peptide text is derived from it.
Parameter Measured: IC50 (µM)
Give the quantity in µM, number only.

Below are worked cases with known answers.
{"Compound": "CC1(C)S[C@@H]2[C@H](NC(=O)[C@H](N)c3ccccc3)C(=O)N2[C@H]1C(=O)O", "IC50 / µM": 10000}
{"Compound": "NCC(=O)NCC(=O)NCC(=O)O", "IC50 / µM": 1400}

Consider the record given below.
### Prompt Reported IC50 for C[C@H](N)C(=O)N[C@@H](C)C(=O)O (H-Ala-Ala-OH) : what is it?
### Response 63
